The following compounds are listed with their measured Activity values.
Test system: Canis familiaris
Assay: Diuretic activity in dog assessed as […] urine volume at 5 mg/kg, iv relative to control
Format: functional, Canis lupus familiaris

{"compound": "Cc1c(OCC(=O)O)cc2c(c1Cl)C(=O)C(C)(c1ccccc1)C2 (stereo not given)", "Activity (mL)": 4}
{"compound": "CCC1(c2ccccc2)Cc2cc(OCC(=O)O)c(Cl)c(Cl)c2C1=O (stereo not given)", "Activity (mL)": 4}
{"compound": "CC1(c2ccccc2)Cc2cc(OCc3nnn[nH]3)c(Cl)c(Cl)c2C1=O (stereo not given)", "Activity (mL)": 3}
{"compound": "O=C(O)COc1cc2c(c(Cl)c1Cl)C(=O)C1(c3ccccc3)CCCCC21 (stereo not given)", "Activity (mL)": 4}
{"compound": "CC1(c2ccc(CN)cc2)Cc2cc(OCC(=O)[O-])c(Cl)c(Cl)c2C1=O.[Na+] (stereo not given)", "Activity (mL)": 5}
{"compound": "CC1(c2ccc(O)cc2)Cc2cc(OCC(=O)O)c(Cl)c(Cl)c2C1=O (stereo not given)", "Activity (mL)": 10}
{"compound": "CC1(c2ccc(F)cc2)Cc2cc(OCC(=O)O)c(Cl)c(Cl)c2C1=O (stereo not given)", "Activity (mL)": 3}
{"compound": "CC1(c2ccc(Cl)cc2)Cc2cc(OCC(=O)O)c(Cl)c(Cl)c2C1=O (stereo not given)", "Activity (mL)": 6}
{"compound": "O=C(O)COc1cc2c(c(Cl)c1Cl)C(=O)C(c1ccccc1)(C1CCCC1)C2 (stereo not given)", "Activity (mL)": 0.8}
{"compound": "CC1(c2ccc(Br)cc2)Cc2cc(OCC(=O)O)c(Cl)c(Cl)c2C1=O (stereo not given)", "Activity (mL)": 3}
